# experimental-target: α-synuclein (Homo sapiens, UniProt P37840)
# procedure-details: Thioflavin-T assay of α-synuclein aggregation kinetics
# Format: biochemical
# condition-info: 100 μM compound, FIG. 1A and 1B
quantity: Inhibition of Th-T fluorescence / fibril formation (in words)

Quick one: give measured Inhibition of Th-T fluorescence / fibril formation (in words) for O=C(c1ccccc1)N1CCN=C1Nc1c(Cl)cccc1Cl [Benclonidine]
potent inhibitors

Determine from records and report Inhibition of Th-T fluorescence / fibril formation (in words) for Cc1ccnc(NS(=O)(=O)c2ccc(N)cc2)n1 [Sulfamerazine]
potent inhibitors

Answer with the recorded Inhibition of Th-T fluorescence / fibril formation (in words) for the compound listed here: Cn1ncc(Cl)c1-c1cc(C(=O)N[C@H](CN)Cc2cccc(F)c2)sc1Cl [Afuresertib]
potent inhibitors

====

# experimental-target: α-synuclein (Homo sapiens, UniProt P37840)
# procedure-details: Light scattering of α-synuclein aggregates at end-point (48 h)
# Type: biochemical
# condition-info: 48 h end-point, normalised to control = 1, excitation 340 nm
Decision: Normalized light scattering value at 340 nm >= 0.7 yields rule met, all other cases yield rule not met.

Hi, just wondering whether CCCOc1ccc2[nH]c(NC(=O)OC)nc2c1 shows Normalized light scattering value at 340 nm of 0.7 or higher.
rule not met

# bool: Normalized light scattering value at 340 nm of C[C@@H](NCCCc1cccc(C(F)(F)F)c1)c1cccc2ccccc12 >= 0.7
rule not met

Could you verify whether the entry Cc1ccnc(NS(=O)(=O)c2ccc(N)cc2)n1 shows Normalized light scattering value at 340 nm of no less than 0.7?
rule met

Normalized light scattering value at 340 nm >= 0.7 for Cn1ncc(Cl)c1-c1cc(C(=O)N[C@H](CN)Cc2cccc(F)c2)sc1Cl ?
rule not met

Has O=C(c1ccccc1)N1CCN=C1Nc1c(Cl)cccc1Cl a recorded Normalized light scattering value at 340 nm greater than or equal to 0.7?
rule met

Others:
Check this compound for Normalized light scattering value at 340 nm at or above 0.7: CC(CCc1ccc2c(c1)OCO2)NCC(O)c1ccc(O)c(C(N)=O)c1 (stereo not shown)
rule met

Tell me whether Normalized light scattering value at 340 nm is at least 0.7 here: N=C(NN=Cc1ccc(Cl)cc1)NN=Cc1ccc(Cl)cc1
rule not met

Please check the record Nc1nc(=O)c2ncn([C@H]3C=C[C@@H](CO)C3)c2[nH]1 [(−)-Carbovir] and state if its Normalized light scattering value at 340 nm is at or above 0.7.
rule met

====

Normalized light scattering value at 300 nm overview
# experimental-target: α-synuclein (Homo sapiens)
# procedure-details: Light scattering of α-synuclein aggregates at end-point (48 h)
# Format: biochemical
# condition-info: 48 h end-point, normalised to control = 1, excitation 300 nm
Give the figure by itself; no unit, no explanation.

Some solved entries appear below for comparison.
Answer with Normalized light scattering value at 300 nm of CC(CCc1ccc2c(c1)OCO2)NCC(O)c1ccc(O)c(C(N)=O)c1 (stereo not shown) [Medroxalol] measured for α-synuclein (Homo sapiens).
0.72

Answer briefly: Normalized light scattering value at 300 nm recorded on α-synuclein (Homo sapiens) for N=C(N)NCC1COC2(CCCCC2)O1 (stereo not shown) [Guanadrel]
0.68

Using α-synuclein (Homo sapiens) as the test system, report measured Normalized light scattering value at 300 nm of Cn1ncc(Cl)c1-c1cc(C(=O)N[C@H](CN)Cc2cccc(F)c2)sc1Cl [Afuresertib] .
0.44

# assay system α-synuclein (Homo sapiens): give Normalized light scattering value at 300 nm of O=C(c1ccccc1)N1CCN=C1Nc1c(Cl)cccc1Cl [Benclonidine]
0.95

Provide Normalized light scattering value at 300 nm, tested on α-synuclein (Homo sapiens), for Cc1ccnc(NS(=O)(=O)c2ccc(N)cc2)n1 [Sulfamerazine] .
0.55

---
Give Normalized light scattering value at 300 nm for this entry on α-synuclein (Homo sapiens): CCCOc1ccc2[nH]c(NC(=O)OC)nc2c1 [Oxibendazole]
0.13

Name the value of Normalized light scattering value at 300 nm reported for N=C(NN=Cc1ccc(Cl)cc1)NN=Cc1ccc(Cl)cc1 [Robenidine] when tested on α-synuclein (Homo sapiens).
0.31

Give Normalized light scattering value at 300 nm only, for Nc1nc(=O)c2ncn([C@H]3C=C[C@@H](CO)C3)c2[nH]1 [(−)-Carbovir] , using α-synuclein (Homo sapiens) data.
0.72

Answer with Normalized light scattering value at 300 nm of C[C@@H](NCCCc1cccc(C(F)(F)F)c1)c1cccc2ccccc12 [Cinacalcet] measured for α-synuclein (Homo sapiens).
0.44

Return reported Normalized light scattering value at 300 nm for target or system α-synuclein (Homo sapiens), item N=C(N)NC(=O)Cc1c(Cl)cccc1Cl [Guanfacine] .
0.65
